Target: human PD-1 (wild-type), expressed on cells (human, UniProt Q15116 25-288)
Sequence (Q15116 25-288 limits assumed): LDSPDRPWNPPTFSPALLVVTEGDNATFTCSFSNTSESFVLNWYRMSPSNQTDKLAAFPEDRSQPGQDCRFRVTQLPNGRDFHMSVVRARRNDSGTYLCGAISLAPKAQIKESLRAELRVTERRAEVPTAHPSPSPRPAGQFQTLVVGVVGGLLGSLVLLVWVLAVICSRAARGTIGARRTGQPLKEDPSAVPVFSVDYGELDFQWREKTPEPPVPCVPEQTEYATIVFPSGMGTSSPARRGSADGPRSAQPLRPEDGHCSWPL
Assay: cell-based or functional assay
attribute.measured: Cell-cell contact assay (ng/mL)
Give bare numbers, in ng/mL.

- HM268-L8 (antibody, human IgG1, V domains shown, also called humanized HM268, VH ver.L / VL ver.8) VH: QVQLVQSGPEVKKPGASVKVVCKTSGYTFTSYYIQWVRQVPGQGLEWMGWIYFGDASTKYNEKFKGRVTMTADTSTSTAYMELRSLRSDDTAVYYCASYYGSYFDYWGQGTTVTVSS VL: DIQMTQSPSSLSASVGDRVTITCRASQDISNYLNWYQQKPDGTVKLLIYSTSRLHSGVPSRFSGSGSGTDYTLTISSLQPEDFATYYCQQGSTLPFTFGQGTKLEIK: 98.2
- HM268-J9 (antibody, human IgG1, V domains shown, also called humanized HM268, VH ver.J / VL ver.9) VH: QVQLVQSGPEVKKPGASVKVVCKTSGYTFTSYYIQWVRQVPGQGLEWMGWIYFGDASTKYNEKFKGKTTLTADKSTSTAYMELRSLRSDDTAVYYCASYYGSYFDYWGQGTTVTVSS VL: DIQMTQSPSSLSASVGDRVTITCRASQDISNYLNWYQQKPGKAPKLLIYSTSRLHSGVPSRFSGSGSGTDYTLTISSLQPEDFATYYCQQGSTLPFTFGQGTKLEIK: 301
- HM268-M7 (antibody, human IgG1, V domains shown, also called humanized HM268, VH ver.M / VL ver.7) VH: QVQLVQSGPEVKKPGASVKVVCKASGYTFTSYYIQWVRQVPGQGLEWMGWIYFGDASTKYNEKFKGRVTMTADTSTSTAYMELRSLRSDDTAVYYCASYYGSYFDYWGQGTTVTVSS VL: DIQMTQNTSSLSASVGDRVTITCRASQDISNYLNWYQQKPDGTVKLLIYSTSRLHSGVPSRFSGSGSGTDYTLTISSLEQEDFATYYCQQGSTLPFTFGQGTKLEIK: 149
- humanized HM268-K8-IgG1-K322A (antibody, V domains shown) VH: QVQLVQSGPEVKKPGASVKVVCKTSGYTFTSYYIQWLKQRPGQGLEWIGWIYFGDASTKYNEKFKGRVTMTADKSTSTAYMELRSLRSDDTAVYYCASYYGSYFDYWGQGTTVTVSS VL: DIQMTQSPSSLSASVGDRVTITCRASQDISNYLNWYQQKPDGTVKLLIYSTSRLHSGVPSRFSGSGSGTDYTLTISSLQPEDFATYYCQQGSTLPFTFGQGTKLEIKR: 39.4

Now consider the entry below.
Request: Query (binder): HM268-K7 (antibody, human IgG1, V domains shown, also called humanized HM268, VH ver.K / VL ver.7) VH: QVQLVQSGPEVKKPGASVKVVCKTSGYTFTSYYIQWLKQRPGQGLEWIGWIYFGDASTKYNEKFKGRVTMTADKSTSTAYMELRSLRSDDTAVYYCASYYGSYFDYWGQGTTVTVSS VL: DIQMTQNTSSLSASVGDRVTITCRASQDISNYLNWYQQKPDGTVKLLIYSTSRLHSGVPSRFSGSGSGTDYTLTISSLEQEDFATYYCQQGSTLPFTFGQGTKLEIK ; field requested: Cell-cell contact assay
Response: 43.7
